system tested: Dpo4•DNA binary complex (Saccharolobus solfataricus, UniProt Q97W02)
Sequence (Q97W02 1-352): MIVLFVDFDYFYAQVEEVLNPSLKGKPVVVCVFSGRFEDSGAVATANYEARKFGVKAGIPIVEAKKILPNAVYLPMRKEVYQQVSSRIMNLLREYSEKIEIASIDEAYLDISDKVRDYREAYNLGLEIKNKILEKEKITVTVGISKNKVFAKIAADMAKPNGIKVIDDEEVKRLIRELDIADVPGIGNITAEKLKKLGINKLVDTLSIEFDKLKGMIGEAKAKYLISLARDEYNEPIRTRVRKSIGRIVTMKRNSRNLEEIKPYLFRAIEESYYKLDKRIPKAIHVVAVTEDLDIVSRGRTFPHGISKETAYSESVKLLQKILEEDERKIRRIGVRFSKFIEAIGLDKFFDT
test details: Substrate specificity assay
Format: biochemical, Sulfolobus solfataricus
condition context: DNA substrate 20/26-mer-dG^C8-N-ABA; efficiency/sum of efficiencies × 100
measured metric: Probability
Please give only the number in your answer, with no unit.

// Probability lookup, molecule = Nc1ncnc2c1ncn2[C@H]1C[C@H](O)[C@@H](COP(=O)(O)OP(=O)(O)OP(=O)(O)O)O1 , result: 0.61

# molecule Nc1ccn([C@H]2C[C@H](O)[C@@H](COP(=O)(O)OP(=O)(O)OP(=O)(O)O)O2)c(=O)n1 ; its Probability = 98.93

The molecule Nc1nc2c(ncn2[C@H]2C[C@H](O)[C@@H](COP(=O)(O)OP(=O)(O)OP(=O)(O)O)O2)c(=O)[nH]1 showed Probability equal to 0.14

Item: Cc1cn([C@H]2C[C@H](O)[C@@H](COP(=O)(O)OP(=O)(O)OP(=O)(O)O)O2)c(=O)[nH]c1=O | Probability: 0.32
